experimental.details: qHTS assay to identify small molecule antagonists of the constitutive androstane receptor (CAR) signaling pathway - cell viability counter screen (AID 1224837); note: nearly all actives have a fitted effect of over 45% in size
settings: HepG2-CYP2B6-hCAR viability, CellTiter-Fluor, 23 h, co-treated with 50 nM CITCO; series mostly up to 92.4 µM
Inconclusive results are not listed. The source made the active and inactive calls. Calls come from the whole dose curve; as a rule, active = well fitted cell-killing curve with a large enough effect in the repeat runs; inconclusive = weak or mixed curves, or effect the other way; inactive = flat fitted curve, though single readings scatter.
Possible outcomes: label 1 = active, label 0 = inactive

[[record]]
query_smiles = "COc1cc(OC)c(OC)cc1C=O"
label = "label 0"

[[record]]
query_smiles = "O=[N+]([O-])c1c(Cl)c(Cl)cc(Cl)c1Cl"
label = "label 0"

[[record]]
query_smiles = "Cc1ccc(N(SC(F)(Cl)Cl)S(=O)(=O)N(C)C)cc1"
label = "label 1"

[[record]]
query_smiles = "Nc1ccc([N+](=O)[O-])cc1"
label = "label 1"

[[record]]
query_smiles = "COc1ccc(C(c2ccc(OC)cc2)C(Cl)(Cl)Cl)cc1"
label = "label 0"

[[record]]
query_smiles = "CCOC(=O)C(O)(c1ccc(Cl)cc1)c1ccc(Cl)cc1"
label = "label 0"

